B1: library; a variant is named by its letters at N, in order (parent)
chain: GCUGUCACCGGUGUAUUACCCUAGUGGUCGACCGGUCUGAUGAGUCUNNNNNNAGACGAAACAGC

# Variants of: B1
# protocol details: normalized RNA/DNA level with ligand (relative to sTRSVctl = 100) (log10 (% of sTRSVctl)); ligand: hypoxanthine (xanthine aptamer); higher = less ribozyme self-cleavage, higher mRNA level
# measurement parameters: ligand concentration (+) RNA-Seq: 5 mM, HEK293T, reporter: mCherry (pCS4076), ligand present: yes
Below, each of the variants is paired with its reported normalized RNA/DNA level with ligand (log10) value.
Keep the answer to the number alone.

[[record]]
changes = "CCAAUC"
measurement = 1.98


# evaluate next
Form field: reported normalized RNA/DNA level with ligand (log10) of "AGAAAU"
1.93
